// reported viability, T/C per item
# Test system: 699152-130-R-J1-PDC complex spheroid viability;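 note: spheroids exposed to agents for 7 days before viability reading; percent of DMSO vehicle control viability so 100% = vehicle and 0% = no viable signal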
# assay.comment: Anticancer human tumor 699152-130-R-J1-PDC patient-derived pancreatic carcinoma cell line growth inhibition [POLQ]
# condition.description: second compound 0.1 µM; first compound 0.316 µM; stronger effect = lower value
The reply should contain only the number, in %.

CCc1cc2c(N3CCc4c(cc(Cn5ccnc5)cc4-c4cn(C)nc4C(F)(F)F)C3=O)cc(C)nc2c(OC)n1 + COC1C(OC(N)=O)C(O)C(Oc2ccc3c(O)c(NC(=O)c4ccc(O)c(CC=C(C)C)c4)c(=O)oc3c2C)OC1(C)C: 91.7
CC1COCCN1c1cc(C2(O)CC3CCC(C2)O3)c2cnn(-c3ccn[nH]3)c2n1 (stereo unspecified) + Cc1cccc(N(C)C(=O)C2C(O)CCN2c2nc(C)cc(C(F)(F)F)c2C#N)c1: 60.9
CCCS(=O)(=O)Nc1ccc(F)c(C(=O)c2c[nH]c3ncc(-c4ccc(Cl)cc4)cc23)c1F + Nc1ccc(C#CCN(C(=O)Cc2ncc(C(F)(F)F)cc2C(F)(F)F)c2ccc(F)cc2)nn1: 119
C#Cc1c(F)ccc2cc(O)cc(-c3ncc4c(N5CC6CCC(C5)N6)nc(OCC56CCCN5CC(F)C6)nc4c3F)c12 (stereo unspecified) + Nc1ccc(C#CCN(C(=O)Cc2ncc(C(F)(F)F)cc2C(F)(F)F)c2ccc(F)cc2)nn1: 15.4

Lab book: viability, T/C of Nc1ccn(C2OC(CO)C(O)C2(F)F)c(=O)n1 (stereo unspecified) + COC1C(OC(N)=O)C(O)C(Oc2ccc3c(O)c(NC(=O)c4ccc(O)c(CC=C(C)C)c4)c(=O)oc3c2C)OC1(C)C noted as 48.7

Lab book: viability, T/C of CC(C)n1c(=O)n(C)c2cnc3cc(F)c(-c4ccc(OCCCN5CCCCC5)nc4)cc3c21 + COC1C(OC(N)=O)C(O)C(Oc2ccc3c(O)c(NC(=O)c4ccc(O)c(CC=C(C)C)c4)c(=O)oc3c2C)OC1(C)C noted as 41.8

Lab book: viability, T/C of O=C(Nc1ccc(O)c(NS(=O)(=O)c2ccc(F)cc2)c1)c1ccc(-c2ccccc2)cc1 + COC1C(OC(N)=O)C(O)C(Oc2ccc3c(O)c(NC(=O)c4ccc(O)c(CC=C(C)C)c4)c(=O)oc3c2C)OC1(C)C noted as 117

Lab book: viability, T/C of CCc1c2c(nc3ccc(O)cc13)-c1cc3c(c(=O)n1C2)COC(=O)[C@]3(O)CC + Nc1ccc(C#CCN(C(=O)Cc2ncc(C(F)(F)F)cc2C(F)(F)F)c2ccc(F)cc2)nn1 noted as 32.6

Lab book: viability, T/C of O=C(c1cc(Cc2n[nH]c(=O)c3ccccc23)ccc1F)N1CCN(C(=O)C2CC2)CC1 + COC1C(OC(N)=O)C(O)C(Oc2ccc3c(O)c(NC(=O)c4ccc(O)c(CC=C(C)C)c4)c(=O)oc3c2C)OC1(C)C noted as 38.5

Lab book: viability, T/C of C=CC(=O)N1CCN(c2nc(=O)n(-c3c(C)ccnc3C(C)C)c3nc(-c4c(O)cccc4F)c(F)cc23)C(C)C1 (stereo unspecified) + COC1C(OC(N)=O)C(O)C(Oc2ccc3c(O)c(NC(=O)c4ccc(O)c(CC=C(C)C)c4)c(=O)oc3c2C)OC1(C)C noted as 107

Lab book: viability, T/C of COc1cccc(OCCCN)c1-c1cc(Nc2cnc(C#N)cn2)n[nH]1 + Cc1cccc(N(C)C(=O)C2C(O)CCN2c2nc(C)cc(C(F)(F)F)c2C#N)c1 noted as 55.5
